The origin of these recorded values is patent US11180657B2.

Measured λabs by item
protocolNotes: Absorption maximum of the dye
Assay type: physicochemical
condition: solvent PBS pH 7.4
Marks after values point to notes of the source that are not given here.

compound	λabs
CCN(CS(=O)(=O)O)c1ccc2c(c1)[Si](C)(C)C1=C/C(=[N+](/CC)CS(=O)(=O)O)C=CC1=C2NCCS(=O)(=O)O	472^b nm
C[N+](C)=C1C=CC2=C(NC(CCS(=O)(=O)O)C(=O)O)c3cc4c(cc3C(C)(C)C2=C1)N(Cc1ccc(S(=O)(=O)O)cc1S(=O)(=O)O)CCC4 (centres unmarked)	496^b nm
CN(C)c1ccc2c(c1)C(C)(C)c1cc3c(cc1=C2c1c(F)c(F)c(SCC(=O)O)c(F)c1F)C(CS(=O)(=O)O)CC(C)(C)[N+]=3Cc1ccc(S(=O)(=O)O)cc1S(=O)(=O)O (centres unmarked)	673^b nm
CN(CCCC(=O)O)C(=O)c1ccccc1C1=c2cc3c(cc2C(C)(C)c2c1cc1c4c2CCCN4CCC1)=[N+](Cc1ccc(S(=O)(=O)O)cc1S(=O)(=O)O)CCC3	640 nm
Cc1c(CC(=O)O)c(=O)oc2cc(NCS(=O)(=O)O)ccc12	354^b nm
CN(C)c1ccc2c(c1)C(C)(C)c1cc3c(cc1=C2)CCC[N+]=3Cc1ccc(S(=O)(=O)O)cc1S(=O)(=O)O	596^b nm
CC1(C)c2cc3c(cc2C(c2c(F)c(F)c(SCC(=O)O)c(F)c2F)=c2cc4c(cc21)=[N+](Cc1ccc(S(=O)(=O)O)cc1S(=O)(=O)O)C(C)(C)CC4CS(=O)(=O)O)C(CS(=O)(=O)O)=CC(C)(C)N3Cc1ccc(S(=O)(=O)O)cc1S(=O)(=O)O (centres unmarked)	699^b nm
CC1(C)CC(CS(=O)(=O)O)c2cc3c(cc2N1Cc1ccc(S(=O)(=O)O)cc1S(=O)(=O)O)[Si](C)(C)c1cc2c(cc1=C3c1cc(C(=O)O)ccc1C(=O)O)C(CS(=O)(=O)O)CC(C)(C)[N+]=2Cc1ccc(S(=O)(=O)O)cc1S(=O)(=O)O (centres unmarked)	675^b nm

---

Measured λabs by item
protocolNotes: Absorption maximum of the dye
Assay type: physicochemical
condition: solvent water/acetonitrile 1:1
Marks after values point to notes of the source that are not given here.
attributeMeasured: λabs

querySmiles	reportedResult
CN(CCCC(=O)NCCCCCC(=O)O)C(=O)c1ccccc1-c1c2cc(S(=O)(=O)O)/c(=N/Cc3ccc(S(=O)(=O)O)cc3S(=O)(=O)O)cc-2oc2cc(NCc3ccc(S(=O)(=O)O)cc3S(=O)(=O)O)c(S(=O)(=O)O)cc12	536^c nm
CN(CCCC(=O)O)C(=O)c1ccccc1-c1c2cc/c(=N/CCc3ccc(S(=O)(=O)O)cc3)c(S(=O)(=O)O)c-2oc2c(S(=O)(=O)O)c(NCCc3ccc(S(=O)(=O)O)cc3)ccc12	538^c nm
CN(CCCC(=O)O)C(=O)c1ccccc1C1=c2cc3c(cc2Oc2cc4c(cc21)CCCN4Cc1ccc(S(=O)(=O)O)cc1S(=O)(=O)O)=[N+](Cc1ccc(S(=O)(=O)O)cc1S(=O)(=O)O)CCC3	567^c nm
CN(CCCC(=O)ON1C(=O)CCC1=O)C(=O)c1ccccc1-c1c2cc(S(=O)(=O)O)/c(=N/Cc3ccc(S(=O)(=O)O)cc3S(=O)(=O)O)cc-2oc2cc(NCc3ccc(S(=O)(=O)O)cc3S(=O)(=O)O)c(S(=O)(=O)O)cc12	534^c nm
CN(CCCC(=O)O)C(=O)c1ccccc1-c1c2cc/c(=N/CCc3ccc(S(=O)(=O)O)cc3)cc-2oc2cc(NCCc3ccc(S(=O)(=O)O)cc3)ccc12	538^c nm
CN(CCCC(=O)O)C(=O)c1ccccc1-c1c2cc(S(=O)(=O)O)/c(=N/c3ccc(S(=O)(=O)O)cc3)cc-2oc2cc(Nc3ccc(S(=O)(=O)O)cc3)c(S(=O)(=O)O)cc12	566^c nm
CN(CCCC(=O)O)C(=O)c1ccccc1-c1c2cc/c(=N/Cc3ccc(S(=O)(=O)O)cc3S(=O)(=O)O)cc-2oc2cc(NCc3ccc(S(=O)(=O)O)cc3S(=O)(=O)O)ccc12	534^c nm
CN(CCCC(=O)O)C(=O)c1ccccc1-c1c2cc/c(=N\c3ccc(S(=O)(=O)O)cc3)c(S(=O)(=O)O)c-2oc2c(S(=O)(=O)O)c(Nc3ccc(S(=O)(=O)O)cc3)ccc12	555^c nm
